# inhibition per record follows
targetEntity: L-lactate dehydrogenase (Plasmodium falciparum (isolate CDC / Honduras)) (UniProt Q27743)
Sequence (Q27743 whole entry, looked up): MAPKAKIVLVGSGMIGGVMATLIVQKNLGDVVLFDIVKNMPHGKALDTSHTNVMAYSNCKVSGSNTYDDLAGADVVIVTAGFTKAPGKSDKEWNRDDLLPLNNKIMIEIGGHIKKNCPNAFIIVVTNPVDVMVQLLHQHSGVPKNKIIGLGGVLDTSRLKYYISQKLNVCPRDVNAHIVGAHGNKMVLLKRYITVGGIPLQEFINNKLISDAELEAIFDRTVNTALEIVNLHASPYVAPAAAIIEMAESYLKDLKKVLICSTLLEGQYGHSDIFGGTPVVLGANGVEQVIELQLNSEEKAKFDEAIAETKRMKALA
assayDetails: PfLDH activity inhibition – cell lysate, 3D7 strain, counter-screen for P. falciparum growth inhibition project (AID 2304);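 also: 0% = vehicle and 100% = reference inhibitor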
measurementParameters: P. falciparum 3D7 crude extract, LDH APAD/NBT absorbance; at 2 µM; stronger effect = higher value
Activity calls are given as the source filed them. No rule for the calls is given here.

// worked examples, inhibition included
molecule	testResult
Cc1ccc(CN2CCCN(Cc3ccc(C(=O)Nc4ccc(Cl)cc4)cc3)CC2)s1	3% (inactive)
CC(C)C(=O)NC(c1ccc(N(C)C)cc1)c1cc(Cl)c2cccnc2c1O (stereo not given)	2% (inactive)
O=C(NCCCCCN1CCC(c2c[nH]c3ccccc23)CC1)Nc1cccc(Cl)c1	-1% (inactive)

// query inhibition value for entry O=S1c2ccccc2Sc2ccccc21
6% (inactive)

Okay, and Cn1cccc1CCNCc1ccc(-c2cccc(-c3nc4ccccc4[nH]3)c2)cc1 ?
3% (inactive)
